Cited source: the RNAGym collection of RNA variant scans (doi:10.1101/gad.245936.114)

I'd appreciate it if you could supply nonsense suppression values for the items below.
B1: tRNA (parent)
chain: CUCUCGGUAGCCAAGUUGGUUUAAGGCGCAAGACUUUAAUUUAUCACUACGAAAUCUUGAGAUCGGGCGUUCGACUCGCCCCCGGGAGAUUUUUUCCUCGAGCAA

variants of: B1; assay: nonsense suppression (GFP-seq) (ratio to wild type); higher = more function; SUP4oc tRNA, yeast GFP reporter sort-seq
This sample holds only a part of the variants without activity.

Task: Which measured nonsense suppression value corresponds to A24U A60G G65U G88C A89G ?
Output: ≤ 0.026

Task: Which measured nonsense suppression value corresponds to G7U G85U ?
Output: ≤ 0.026

Task: Which measured nonsense suppression value corresponds to U4A U20C A31U U71G C80A ?
Output: ≤ 0.026

Task: Which measured nonsense suppression value corresponds to C1U G66U G86A ?
Output: ≤ 0.026

Task: Which measured nonsense suppression value corresponds to C3U G78A ?
Output: 0.0608

Task: Which measured nonsense suppression value corresponds to A14U U21A A24G A31C C56G G88A ?
Output: ≤ 0.026

Task: Which measured nonsense suppression value corresponds to `A31G` ?
Output: 1.08

Task: Which measured nonsense suppression value corresponds to A33G U58A ?
Output: ≤ 0.026

Task: Which measured nonsense suppression value corresponds to U2A C12A ?
Output: ≤ 0.026

Task: Which measured nonsense suppression value corresponds to G18A G25U C27U G67C ?
Output: ≤ 0.026

Task: Which measured nonsense suppression value corresponds to C5A C64A C77A ?
Output: ≤ 0.026

Task: Which measured nonsense suppression value corresponds to G59C G85A ?
Output: 0.114

Task: Which measured nonsense suppression value corresponds to A14U G85U G88U ?
Output: ≤ 0.026

Task: Which measured nonsense suppression value corresponds to C3A G65A C68U G86U ?
Output: ≤ 0.026

Task: Which measured nonsense suppression value corresponds to C34U G61C ?
Output: 0.0481

Task: Which measured nonsense suppression value corresponds to U57G U70G ?
Output: ≤ 0.026

Task: Which measured nonsense suppression value corresponds to A13C C27U ?
Output: 0.0494

Task: Which measured nonsense suppression value corresponds to U35A U70C G73U C81U ?
Output: ≤ 0.026

Task: Which measured nonsense suppression value corresponds to A13C A23G A31U ?
Output: ≤ 0.026

Task: Which measured nonsense suppression value corresponds to U63A C75G ?
Output: 1.13

Task: Which measured nonsense suppression value corresponds to U58A G59A U63A G69C U70G ?
Output: ≤ 0.026

Task: Which measured nonsense suppression value corresponds to U63G G69A ?
Output: 0.116
